src = PubChem BioAssay (NCI)

System: SR leukemia
Test: NCI tumour cell line growth inhibition, 48 h
Exercise: state measured TGI for each of the compounds provided.

Entry O=c1[nH]c2ccc(CC(=S)N3CCOCC3)cc2s1 ; TGI = > 100 µM

Entry O=C(c1cc(Cl)cc(Cl)c1)N(C(=S)OC12CC3CC(CC(C3)C1)C2)c1ccccc1 ; TGI = > 100 µM

Entry Cc1ccc(/C=C/C(=O)c2c([O-])on[n+]2-c2ccccc2)cc1 ; TGI = > 27.5 µM

Entry N=C(N)SCCc1cn2ccccc2n1 ; TGI = > 100 µM

Entry CCc1n[nH]c(=O)n1N1C(=O)C2CC=CCC2C1=O (stereo unspecified) ; TGI = > 100 µM

Entry CC(=O)/C=C/C1=C(c2cc3ccccc3s2)c2ccccc2CC1 ; TGI = > 100 µM

----------
Tested on: UACC-62 melanoma
Assay: NCI tumour cell line growth inhibition, 48 h; in the data active = GI50 below about 0.43 µM; inactive = the rest
Lab note: assign the record to one of 1 for active, 0 for inactive

(Q) Which outcome was entered for the compound CCN(CC)c1ccc2c(c1)Oc1nc(N)c(C#N)c(N)c1C2Sc1ccc(SC)cc1 (stereo not drawn) in this test?
(A) 0

(Q) Which outcome was entered for the compound Brc1ccc([I+]c2ccc(Br)cc2)cc1 in this test?
(A) 0

(Q) Which outcome was entered for the compound COCCOC(=O)C1=C(C)NC2=C(C(=O)CC(c3ccccc3OC)C2)C1c1cccc(O)c1 (stereo not drawn) in this test?
(A) 0

(Q) Which outcome was entered for the compound COc1ccc(O)c(C(=O)c2ccc(C(=O)O[C@@H]3CCCNC[C@H]3NC(=O)c3ccncc3)cc2)c1F in this test?
(A) 0

(Q) Which outcome was entered for the compound CS(=O)(=O)CCNCc1ccc(-c2ccc3ncnc(Nc4ccc(OCc5cccc(C(F)(F)F)c5)cc4)c3c2)o1 in this test?
(A) 0

(Q) Which outcome was entered for the compound CN1C(=O)CNC(=O)[C@H](NC(=O)c2nc3ccccc3cc2O)CSSC[C@H]1C(=O)NCCc1nc2ccccc2cc1O in this test?
(A) 0

(Q) Which outcome was entered for the compound COc1cc(CSc2nc3ccc(C)cc3c(=O)n2Cc2ccccc2)cc(OC)c1OC in this test?
(A) 0

(Q) Which outcome was entered for the compound CC(ONC(=O)c1cc(C(F)(F)F)cc(C(F)(F)F)c1)C(=O)Nc1ccc(Cl)cc1 (stereo not drawn) in this test?
(A) 0

(Q) Which outcome was entered for the compound CCOC(=O)CC1(O)C=CC(=O)C=C1 in this test?
(A) 0

(Q) Which outcome was entered for the compound COc1ccc2[nH]cc(-c3nc(-c4cn(C)c5ccncc45)cs3)c2c1 in this test?
(A) 0

(Q) Which outcome was entered for the compound Nc1cc(-c2ccccc2)ccc1O in this test?
(A) 0

(Q) Which outcome was entered for the compound COc1cnc2c(c1)C(=O)c1c-2n(CCCn2ccnc2)c(=O)c2cc(Cl)ccc12 in this test?
(A) 1

(Q) Which outcome was entered for the compound CCN(CC)CCOc1ccc(/C=C2\CC3C4CCC5=CC(=O)CC[C@]5(C)C4CC[C@]3(C)C2=O)cc1OC (stereo partly drawn) in this test?
(A) 0

----------
Exercise: state measured TGI for each of the compounds provided.
Test system: SK-MEL-28 melanoma
Test: NCI tumour cell line growth inhibition, 48 h

Entry CC(c1ccc(Br)cc1)C(C(=O)O)C(=O)O (stereo unspecified) ; TGI = > 100 µM

Entry O=C(O)/C(=C/c1ccccc1[N+](=O)[O-])c1ccccc1 ; TGI = > 100 µM

Entry c1ccc(C2SCC3=Nc4ccccc4CN32)cc1 (stereo unspecified) ; TGI = > 100 µM

Entry O=C1CCCC/C1=C/C=C/c1ccccc1 ; TGI = > 100 µM

Entry NC1CC(=O)c2csc(Br)c21 (stereo unspecified) ; TGI = 37.9 µM

Entry CCOc1ccccc1/C=C1\NC(=O)N(/C=C2\C(=O)Oc3ccccc3C2=O)C1=O ; TGI = > 100 µM
